Test system: CXCL8
Assay: LPS-induced CXCL8 (IL-8) production in PMA-differentiated U937 cells (ELISA)
Assay type: cell-based, human
Conditions: solithromycin and telithromycin at 100 μM, clarithromycin at 333 μM
readout_label: inhibition of CXCL8 (IL-8) production (in words)

smiles_string=CC[C@H]1OC(=O)[C@H](C)[C@@H](O[C@H]2C[C@@](C)(OC)[C@@H](O)[C@H](C)O2)[C@H](C)[C@@H](O[C@@H]2O[C@H](C)C[C@H](N(C)C)[C@H]2O)[C@](C)(O)C[C@@H](C)CN(C)[C@H](C)[C@@H](O)[C@]1(C)O experimental_value="did not inhibit"
smiles_string=CC[C@H]1OC(=O)[C@H](C)[C@@H](O[C@H]2C[C@@](C)(OC)[C@@H](O)[C@H](C)O2)[C@H](C)[C@@H](O[C@@H]2O[C@H](C)C[C@H](N(C)C)[C@H]2O)[C@](C)(O)C[C@@H](C)C(=O)[C@H](C)[C@@H](O)[C@]1(C)O experimental_value="did not inhibit"
smiles_string=CC[C@H]1OC(=O)[C@H](C)C(=O)[C@H](C)[C@@H](O[C@@H]2O[C@H](C)C[C@H](N(C)C)[C@H]2O)[C@](C)(OC)C[C@@H](C)C(=O)[C@H](C)[C@H]2N(CCCCn3cnc(-c4cccnc4)c3)C(=O)O[C@]12C experimental_value="did not inhibit"
